Origin of measurements: patent US20230272055A1

The following binders are listed with their measured koff values.
molecular target: T1, Recombinant MBP-mutCALR Type 1 fusion protein (human); assay: SPR, IgG captured, 1:1 fit, Exp. 1
T1 construct: custom made at Cepter; also called recombinant mutCALR protein

binder	koff, s⁻¹
anti-mutCALR antibody clone 23 (antibody, human IgG1, lambda, V domains shown, human IgG1) VH: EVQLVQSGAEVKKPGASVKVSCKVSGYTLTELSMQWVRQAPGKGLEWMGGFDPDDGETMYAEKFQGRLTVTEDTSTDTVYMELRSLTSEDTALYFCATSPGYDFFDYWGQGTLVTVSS VL: SYVLTQPPSVSVAPGQTARITCGGNNIGIKSVHWYQQKPGQAPVLVVYDDSDRPSGIPERFSGSNSGNTATLTINRVEAGDEADYYCQVWDSSNDLLIFGGGTKLTVLG	0.00343
anti-mutCALR antibody clone 34 (antibody, human IgG1, lambda, V domains shown, human IgG1) VH: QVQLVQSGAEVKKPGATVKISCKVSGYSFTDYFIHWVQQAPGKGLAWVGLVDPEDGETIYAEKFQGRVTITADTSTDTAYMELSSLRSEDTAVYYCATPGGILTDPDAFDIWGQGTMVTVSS VL: QSALTQPASVSGSPGQSITISCTGTSSDVGGYNYVSWYQQHPGKAPKLMIYEVSNRPSGVSNRFSGSKSGNTASLTISGLQAEDEADYYCSSYTSSSTYVFGTGTKVTVLG	0.00581
anti-mutCALR antibody clone 32 (antibody, human IgG1, lambda, V domains shown, human IgG1) VH: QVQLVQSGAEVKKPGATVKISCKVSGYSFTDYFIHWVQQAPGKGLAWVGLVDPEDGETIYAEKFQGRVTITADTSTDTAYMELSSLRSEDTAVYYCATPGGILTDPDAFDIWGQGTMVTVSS VL: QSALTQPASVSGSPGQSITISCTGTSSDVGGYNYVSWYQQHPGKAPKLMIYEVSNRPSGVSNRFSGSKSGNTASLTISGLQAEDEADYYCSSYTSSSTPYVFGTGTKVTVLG	0.00768
anti-mutCALR antibody clone 26 (antibody, human IgG1, lambda, V domains shown, human IgG1) VH: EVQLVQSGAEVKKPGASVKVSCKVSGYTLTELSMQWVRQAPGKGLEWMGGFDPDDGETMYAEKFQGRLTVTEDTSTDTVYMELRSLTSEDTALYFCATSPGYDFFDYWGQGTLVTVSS VL: SYVLTQPPSVSVAPGQTARITCGGNNIGSKSVHWYQQKPGQAPVLVVYDDSDRPSGIPERFSGSNSGNTATLTISRVEAGDEADYYCQVWDSSIDHLIFGGGTKVTVLG	0.00471
anti-mutCALR antibody clone 39 (antibody, human IgG1, kappa, V domains shown, human IgG1) VH: EVQLVQSGAEVKKPGSSVKVSCKASGGTFSSYAISWVRQAPGQGLEWMGLVDPEDGETIYAEKFQGRVTITADTSTDTAYMELSSLRSEDTAVYYCATEESYGPWGQGTLVTVSS VL: DIQLTQSPSSLSASVGDRVTITCQASQDISNYLDWYQQKPGKAPKLLIYDASNLETGVPSRFSGSGSGTEFTLTISSLQPEDFATYYCQQLNSYPLTFGGGTKLEIKR	0.0018
